tested on: Rickettsiae; conditions: expected efficacy against Rickettsiae

# smiles.str, Efficacy
rows = [
    ("CO/N=C(\\C(=O)N[C@@H]1C(=O)N2C(C(=O)O)=C(CSc3nc(=O)c(=O)[nH]n3C)CS[C@H]12)c1csc(N)n1", "no"),
    ("C/C(=C\\C(=O)OCCCCCCCCC(=O)O)C[C@@H]1OC[C@H](C[C@@H]2O[C@H]2[C@@H](C)[C@H](C)O)[C@@H](O)[C@H]1O", "no"),
    ("O=C(O)c1cn(C2CC2)c2cc(N3CCNCC3)c(F)cc2c1=O", "yes"),
    ("CC[C@H]1OC(=O)[C@H](C)[C@@H](O[C@H]2C[C@@](C)(OC)[C@@H](O)[C@H](C)O2)[C@H](C)[C@@H](O[C@@H]2O[C@H](C)C[C@H](N(C)C)[C@H]2O)[C@](C)(O)C[C@@H](C)CN(C)[C@H](C)[C@@H](O)[C@]1(C)O", "yes"),
]

---

system: Candida species; experiment: Expected efficacy of antifungal agents; settings: expected efficacy against Candida species

# compound, Efficacy
measured = [
    ("C[C@@H]1[C@H](O)[C@@H](C)/C=C/C=C/CC/C=C/C=C/C=C/C=C/C(O[C@H]2O[C@H](C)[C@@H](O)[C@H](N)[C@@H]2O)CC2O[C@](O)(CC(O)C(O)CCC(O)CC(O)CC(O)CC(=O)O[C@H]1C)CC(O)C2C(=O)O (some centres unmarked)", "yes"),
    ("OC(Cn1cncn1)(Cn1cncn1)c1ccc(F)cc1F", "yes"),
    ("C[C@@H]1[C@H](O)[C@@H](C)/C=C/C=C/C=C/C=C/C=C/C=C/C=C/[C@H](O[C@@H]2O[C@H](C)[C@@H](O)[C@H](N)[C@@H]2O)C[C@@H]2O[C@](O)(C[C@@H](O)C[C@@H](O)[C@H](O)CC[C@@H](O)C[C@@H](O)CC(=O)O[C@H]1C)C[C@H](O)[C@H]2C(=O)O", "yes"),
    ("CCC(C)n1ncn(-c2ccc(N3CCN(c4ccc(OC[C@H]5CO[C@](Cn6cncn6)(c6ccc(Cl)cc6Cl)O5)cc4)CC3)cc2)c1=O (mixture of isomers)", "yes"),
    ("C[C@@H](c1ncncc1F)[C@](O)(Cn1cncn1)c1ccc(F)cc1F", "yes"),
]

---

system: Providencia stuartii; assay: Expected efficacy of antibiotic agents; settings: expected efficacy against Providencia stuartii

# molecule, study.target, Efficacy
data = [
    ("CC[C@H]1OC(=O)[C@H](C)[C@@H](O[C@H]2C[C@@](C)(OC)[C@@H](O)[C@H](C)O2)[C@H](C)[C@@H](O[C@@H]2O[C@H](C)C[C@H](N(C)C)[C@H]2O)[C@](C)(O)C[C@@H](C)CN(C)[C@H](C)[C@@H](O)[C@]1(C)O [Azithromycin]", "Providencia stuartii", "no"),
    ("CN[C@H](CC(C)C)C(=O)N[C@H]1C(=O)N[C@@H](CC(N)=O)C(=O)N[C@H]2C(=O)N[C@H]3C(=O)N[C@H](C(=O)N[C@H](C(=O)O)c4cc(O)cc(O)c4-c4cc3ccc4O)[C@H](O)c3ccc(c(Cl)c3)Oc3cc2cc(c3O[C@@H]2O[C@H](CO)[C@@H](O)[C@H](O)[C@H]2O[C@H]2C[C@](C)(N)[C@H](O)[C@H](C)O2)Oc2ccc(cc2Cl)[C@H]1O [Vancomycin]", "Providencia stuartii", "no"),
    ("O=C(O)c1cn(C2CC2)c2cc(N3CCNCC3)c(F)cc2c1=O [Ciprofloxacin, ciprofloxacin]", "Providencia stuartii", "yes"),
    ("C/C(=C\\C(=O)OCCCCCCCCC(=O)O)C[C@@H]1OC[C@H](C[C@@H]2O[C@H]2[C@@H](C)[C@H](C)O)[C@@H](O)[C@H]1O [Bactroban]", "Providencia stuartii", "no"),
    ("CO/N=C(\\C(=O)N[C@@H]1C(=O)N2C(C(=O)O)=C(CSc3nc(=O)c(=O)[nH]n3C)CS[C@H]12)c1csc(N)n1 [Ceftriaxone, ceftriaxone]", "Providencia stuartii", "yes"),
]

---

tested on: Streptococcus pneumoniae; assay: Expected efficacy of antibiotic agents; conditions: expected efficacy against Streptococcus pneumoniae

# smiles.str, Efficacy
measured = [
    ("CN[C@H](CC(C)C)C(=O)N[C@H]1C(=O)N[C@@H](CC(N)=O)C(=O)N[C@H]2C(=O)N[C@H]3C(=O)N[C@H](C(=O)N[C@H](C(=O)O)c4cc(O)cc(O)c4-c4cc3ccc4O)[C@H](O)c3ccc(c(Cl)c3)Oc3cc2cc(c3O[C@@H]2O[C@H](CO)[C@@H](O)[C@H](O)[C@H]2O[C@H]2C[C@](C)(N)[C@H](O)[C@H](C)O2)Oc2ccc(cc2Cl)[C@H]1O", "yes"),
    ("NC[C@H]1O[C@H](O[C@H]2[C@H](O)[C@@H](O[C@H]3O[C@H](CO)[C@@H](O)[C@H](N)[C@H]3O)[C@H](N)C[C@@H]2N)[C@H](N)C[C@@H]1O", "no"),
    ("CO/N=C(\\C(=O)N[C@@H]1C(=O)N2C(C(=O)O)=C(CSc3nc(=O)c(=O)[nH]n3C)CS[C@H]12)c1csc(N)n1", "yes"),
    ("CC[C@H]1OC(=O)[C@H](C)[C@@H](O[C@H]2C[C@@](C)(OC)[C@@H](O)[C@H](C)O2)[C@H](C)[C@@H](O[C@@H]2O[C@H](C)C[C@H](N(C)C)[C@H]2O)[C@](C)(O)C[C@@H](C)CN(C)[C@H](C)[C@@H](O)[C@]1(C)O", "yes"),
]

---

system: Shigella sonnei; assay: Expected efficacy of antibiotic agents; conditions: expected efficacy against Shigella sonnei

# molecule, Efficacy
rows = [
    ("O=C(O)c1cn(C2CC2)c2cc(N3CCNCC3)c(F)cc2c1=O [Ciprofloxacin, ciprofloxacin]", "yes"),
    ("NC[C@H]1O[C@H](O[C@H]2[C@H](O)[C@@H](O[C@H]3O[C@H](CO)[C@@H](O)[C@H](N)[C@H]3O)[C@H](N)C[C@@H]2N)[C@H](N)C[C@@H]1O [Tobramycin, tobramycin]", "yes"),
    ("C/C(=C\\C(=O)OCCCCCCCCC(=O)O)C[C@@H]1OC[C@H](C[C@@H]2O[C@H]2[C@@H](C)[C@H](C)O)[C@@H](O)[C@H]1O [Bactroban]", "no"),
]

---

test system: Vibrio cholerae; assay: Expected efficacy of antibiotic agents; conditions: expected efficacy against Vibrio cholerae

# smiles.str, Efficacy
measured = [
    ("NC[C@H]1O[C@H](O[C@H]2[C@H](O)[C@@H](O[C@H]3O[C@H](CO)[C@@H](O)[C@H](N)[C@H]3O)[C@H](N)C[C@@H]2N)[C@H](N)C[C@@H]1O", "no"),
    ("CN[C@H](CC(C)C)C(=O)N[C@H]1C(=O)N[C@@H](CC(N)=O)C(=O)N[C@H]2C(=O)N[C@H]3C(=O)N[C@H](C(=O)N[C@H](C(=O)O)c4cc(O)cc(O)c4-c4cc3ccc4O)[C@H](O)c3ccc(c(Cl)c3)Oc3cc2cc(c3O[C@@H]2O[C@H](CO)[C@@H](O)[C@H](O)[C@H]2O[C@H]2C[C@](C)(N)[C@H](O)[C@H](C)O2)Oc2ccc(cc2Cl)[C@H]1O", "no"),
    ("O=C(O)c1cn(C2CC2)c2cc(N3CCNCC3)c(F)cc2c1=O", "yes"),
    ("CO/N=C(\\C(=O)N[C@@H]1C(=O)N2C(C(=O)O)=C(CSc3nc(=O)c(=O)[nH]n3C)CS[C@H]12)c1csc(N)n1", "no"),
    ("C/C(=C\\C(=O)OCCCCCCCCC(=O)O)C[C@@H]1OC[C@H](C[C@@H]2O[C@H]2[C@@H](C)[C@H](C)O)[C@@H](O)[C@H]1O", "no"),
    ("CC[C@H]1OC(=O)[C@H](C)[C@@H](O[C@H]2C[C@@](C)(OC)[C@@H](O)[C@H](C)O2)[C@H](C)[C@@H](O[C@@H]2O[C@H](C)C[C@H](N(C)C)[C@H]2O)[C@](C)(O)C[C@@H](C)CN(C)[C@H](C)[C@@H](O)[C@]1(C)O", "yes"),
]

---

system: Shigella sonnei; assay: Expected efficacy of antibiotic agents; conditions: expected efficacy against Shigella sonnei

# compound, Efficacy
data = [
    ("CN[C@H](CC(C)C)C(=O)N[C@H]1C(=O)N[C@@H](CC(N)=O)C(=O)N[C@H]2C(=O)N[C@H]3C(=O)N[C@H](C(=O)N[C@H](C(=O)O)c4cc(O)cc(O)c4-c4cc3ccc4O)[C@H](O)c3ccc(c(Cl)c3)Oc3cc2cc(c3O[C@@H]2O[C@H](CO)[C@@H](O)[C@H](O)[C@H]2O[C@H]2C[C@](C)(N)[C@H](O)[C@H](C)O2)Oc2ccc(cc2Cl)[C@H]1O [Vancomycin]", "no"),
    ("CO/N=C(\\C(=O)N[C@@H]1C(=O)N2C(C(=O)O)=C(CSc3nc(=O)c(=O)[nH]n3C)CS[C@H]12)c1csc(N)n1 [Ceftriaxone, ceftriaxone]", "yes"),
]

Origin of the recorded values: patent US20170173002A1
